assayComment: T. cruzi intracellular proliferation inhibitors, primary screen, cell-based, beta-gal Tulahuen parasites, NIH3T3 host, luminescence (AID 624255)
reportedConditions: T. cruzi beta-gal in NIH3T3, GalScreen luminescence, 90 h; at 8.34 µM; active compounds read high
The whole screen tested about 77,000 compounds, of which about 4,600 (6%) were called active. Inconclusive results (about 1%) are left out. The sample as a whole holds a higher share of actives than the screen did.
Parameter: inhibition. Scope: all listed entries.
observedProperty: inhibition

{"columns": ["recordSmiles", "measuredValue"],
 "data": [
  ["CNC(=O)C[C@H]1CC[C@@H]2[C@H](COc3ccc(NC(=O)Nc4cccc(F)c4)cc3C(=O)N2C)O1", "14.8% (inactive)"],
  ["CCNC(=O)C[C@@H]1CC[C@H]2[C@@H](COc3ccc(NC(=O)NC(C)C)cc3C(=O)N2C)O1", "39.8% (inactive)"],
  ["O=C(C[C@@H]1CC[C@@H](NC(=O)CC2CC2)[C@H](CO)O1)NCc1ccc(-c2ccccc2)cc1", "36.4% (inactive)"],
  ["C[C@@H]1CN([C@H](C)CO)C(=O)c2cc(NC(=O)Nc3ccc(F)cc3)ccc2O[C@@H](C)CCCCO[C@H]1CN(C)Cc1ccc(Cl)c(Cl)c1", "102% (active)"],
  ["COCC(=O)N(C)C[C@H]1Oc2ncc(-c3cccc(OC)c3)cc2C(=O)N([C@H](C)CO)C[C@H]1C", "-6.11% (inactive)"],
  ["O=C([C@H]1N[C@H]2c3ccc(-c4ccccc4)c(=O)n3C[C@H]2[C@@H]1CO)N1CCOCC1", "-8.75% (inactive)"],
  ["O=S(=O)(c1ccc(F)cc1)N1CCCCN2[C@H](C1)[C@H](c1ccc(C3=CCCCC3)cc1)[C@@H]2CO", "99.1% (active)"],
  ["COc1ccc(CN(C)C[C@@H]2OCCCC[C@@H](C)Oc3ccc(NC(=O)Nc4ccc(OC)cc4)cc3C(=O)N([C@@H](C)CO)C[C@@H]2C)cc1", "24.8% (inactive)"],
  ["O=C(Cc1ccccn1)NCC[C@H]1CC[C@H](NS(=O)(=O)c2ccccc2)[C@@H](CO)O1", "44.9% (inactive)"],
  ["COc1ccc(S(=O)(=O)N2CCCCN3[C@H](CO)[C@H](c4ccc(C5=CCCCC5)cc4)[C@@H]3C2)cc1", "88.5% (inactive)"]
]}

Every entry's value here was drawn from PubChem BioAssay AID624255.
